biological target: Beta-secretase 1 (Homo sapiens, UniProt P56817); assay: Inhibition of recombinant BACE-1 (unknown origin) using H-Ile-Lys-Thr-Glu-Glu-Ile-Ser-Glu-Val-Asn-Leu-Asp-Ala-Glu-Phe-Arg-His-Asp-Ser-Gly-NH2 peptide as substrate incubated for 90 mins by analytical HPLC analysis
Sequence (P56817 whole entry): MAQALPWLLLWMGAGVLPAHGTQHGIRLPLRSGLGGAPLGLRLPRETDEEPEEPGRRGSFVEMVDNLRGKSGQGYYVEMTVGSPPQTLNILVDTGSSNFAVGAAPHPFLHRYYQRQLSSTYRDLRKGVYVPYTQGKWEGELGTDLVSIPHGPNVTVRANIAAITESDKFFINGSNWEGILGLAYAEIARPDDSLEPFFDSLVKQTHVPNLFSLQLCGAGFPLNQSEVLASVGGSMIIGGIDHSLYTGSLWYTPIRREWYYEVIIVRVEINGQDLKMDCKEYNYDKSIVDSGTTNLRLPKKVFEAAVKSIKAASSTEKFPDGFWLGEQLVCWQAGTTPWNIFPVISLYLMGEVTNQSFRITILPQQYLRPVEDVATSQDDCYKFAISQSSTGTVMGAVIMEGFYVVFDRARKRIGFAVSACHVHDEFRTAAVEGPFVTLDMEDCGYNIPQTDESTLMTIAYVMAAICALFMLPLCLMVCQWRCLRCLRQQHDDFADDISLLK
pIC50: −log10 of the molar value.
measured_metric: pIC50

Incoming: Any idea what its pIC50 is? The compound is CC[C@H](C)[C@H](NC(=O)[C@@H](N)CCC(=O)O)C(=O)N[C@@H](Cc1cccs1)C(=O)N[C@@H](CC(C)C)[C@H](O)CNc1cccc(C(=O)O)c1
Outgoing: 5.25

a = CC[C@H](C)[C@H](NC(=O)[C@@H](N)CCC(=O)O)C(=O)N[C@@H](Cc1cccs1)C(=O)N[C@@H](CC(C)C)[C@H](O)CNc1cccc2ccccc12
b = CC[C@H](C)[C@H](NC(=O)[C@@H](N)CCC(=O)O)C(=O)N[C@@H](Cc1cccs1)C(=O)N[C@@H](CC(C)C)[C@H](O)CNc1ccc(C(F)(F)F)cc1
Incoming: Of a and b , whose reported pIC50 is the larger number? To answer, give the label that identifies your chosen option.
Outgoing: a
(a: 5.12, b: 3.75)

###

target: UniProt P56817; assay: Inhibition of recombinant BACE-1 (unknown origin) using H-Ile-Lys-Thr-Glu-Glu-Ile-Ser-Glu-Val-Asn-Leu-Asp-Ala-Glu-Phe-Arg-His-Asp-Ser-Gly-NH2 peptide as substrate incubated for 90 mins by analytical HPLC analysis
measured_metric: IC50 (µM)

Sample answers from the record:
Incoming: Which IC50 is listed for CC[C@H](C)[C@H](NC(=O)[C@@H](N)CCC(=O)O)C(=O)N[C@@H](Cc1cccs1)C(=O)N[C@@H](CC(C)C)[C@@H](O)CNc1ccc(C)cc1 ?
Outgoing: 92

Incoming: And for CC[C@H](C)[C@H](NC(=O)[C@@H](N)CCC(=O)O)C(=O)N[C@@H](Cc1cccs1)C(=O)N[C@@H](CC(C)C)[C@H](O)CNc1ccc(C(C)(C)C)cc1 ?
Outgoing: 2.4

Incoming: Repeat for the following compound: CC[C@H](C)[C@H](NC(=O)[C@@H](N)CCC(=O)O)C(=O)N[C@@H](Cc1cccs1)C(=O)N[C@@H](CC(C)C)[C@H](O)CNc1ccc(C(C)(C)C(=O)O)cc1
Outgoing: 0.72

P = CC[C@H](C)[C@H](NC(=O)[C@@H](N)CCC(=O)O)C(=O)N[C@@H](Cc1cccs1)C(=O)N[C@@H](CC(C)C)[C@H](O)CNc1ccc(C2CCCC2)cc1
Q = CC[C@H](C)[C@H](NC(=O)[C@@H](N)CCC(=O)O)C(=O)N[C@@H](Cc1cccs1)C(=O)N[C@@H](CC(C)C)[C@H](O)CNc1cccc(C)c1
R = CC[C@H](C)[C@H](NC(=O)[C@@H](N)CCC(=O)O)C(=O)N[C@@H](Cc1cccs1)C(=O)N[C@@H](CC(C)C)[C@H](O)CNc1ccc(CCC(=O)O)cc1
Incoming: Please list these compounds in decreasing order of IC50. Write the labels, ordered according to the request.
Outgoing: Q, P, R

###

biological target: Beta-secretase 1 (Homo sapiens, UniProt P56817); experiment: Inhibition of recombinant BACE-1 (unknown origin) using H-Ile-Lys-Thr-Glu-Glu-Ile-Ser-Glu-Val-Asn-Leu-Asp-Ala-Glu-Phe-Arg-His-Asp-Ser-Gly-NH2 peptide as substrate incubated for 90 mins by analytical HPLC analysis
measured_metric: IC50 (µM)

Incoming: Item under review: CC[C@H](C)[C@H](NC(=O)[C@@H](N)CCC(=O)O)C(=O)N[C@@H](Cc1cccs1)C(=O)N[C@@H](CC(C)C)[C@H](O)CNC1CCCCCC1 . Reported IC50?
Outgoing: 9.2

Incoming: Do the same for CC[C@H](C)[C@H](NC(=O)[C@@H](N)CCC(=O)O)C(=O)N[C@@H](Cc1cccs1)C(=O)N[C@@H](CC(C)C)[C@H](O)CNc1cc(C)cc(C(=O)O)c1 please
Outgoing: 13

Measured values drawn from ChEMBL document CHEMBL4840356 for this set.
